The reported measurements were obtained from PubChem BioAssay AID651815.

- experimentalSystem: DNA dC->dU-editing enzyme APOBEC-3F (Homo sapiens) (UniProt Q8IUX4)
- Sequence (Q8IUX4 whole entry, looked up): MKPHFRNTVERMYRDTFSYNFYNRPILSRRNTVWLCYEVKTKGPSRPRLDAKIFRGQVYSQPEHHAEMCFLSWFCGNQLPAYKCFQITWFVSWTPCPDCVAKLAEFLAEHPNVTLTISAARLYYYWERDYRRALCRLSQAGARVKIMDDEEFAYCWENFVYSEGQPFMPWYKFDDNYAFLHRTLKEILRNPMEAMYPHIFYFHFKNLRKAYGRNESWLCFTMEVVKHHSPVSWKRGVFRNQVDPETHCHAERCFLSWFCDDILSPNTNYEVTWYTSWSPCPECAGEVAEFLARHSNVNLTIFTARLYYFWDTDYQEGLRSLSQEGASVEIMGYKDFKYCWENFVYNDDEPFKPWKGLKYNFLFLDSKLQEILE
- assayOverview: qHTS for inhibitors of Vif-A3F interactions: Cherry picks counterscreen; note: nearly all actives have a fitted effect of over 65% in size; note: potency is the fitted concentration of half-maximal effect
- conditionLabel: HeLa A3F-eYFP/Vif cells, eYFP fluorescence, 24 h; series mostly up to 46.1 µM
About 1,100 (52%) of roughly 2,100 compounds were called active. About 29% were inconclusive and are not listed. The set was probably picked from earlier hits. Some of the results follow.
measurementLabel: Potency

compound	experimentalSystem	measuredResult
C/C(CC(=O)NCc1ccco1)=N\NC(=O)COc1ccc(Cl)cc1Cl	DNA dC->dU-editing enzyme APOBEC-3F (Homo sapiens) (UniProt Q8IUX4)	12.5 µM (active)
O=C(NCc1cc(C(F)(F)F)ccc1Cl)c1cccc2c1C(=O)c1ccc(N3CCOCC3)cc1S2(=O)=O	DNA dC->dU-editing enzyme APOBEC-3F (Homo sapiens) (UniProt Q8IUX4)	18.4 µM (active)
Cc1cccc(C)c1Nc1nc2ccccc2nc1NS(=O)(=O)c1ccccc1	DNA dC->dU-editing enzyme APOBEC-3F (Homo sapiens) (UniProt Q8IUX4)	23.1 µM (active)
C/C(CC(=O)NCc1ccc(Cl)cc1)=N\NC(=O)COc1ccc(C)cc1Br	DNA dC->dU-editing enzyme APOBEC-3F (Homo sapiens) (UniProt Q8IUX4)	15.8 µM (active)
Cc1cc2oc3ccc(NCCCn4ccnc4)cc3c(=O)c2cc1C	DNA dC->dU-editing enzyme APOBEC-3F (Homo sapiens) (UniProt Q8IUX4)	inactive
CCOC(=O)c1c(NC(=O)c2ccc(S(=O)(=O)N3CCC(C)CC3)cc2)sc2c1CCN(C)C2	DNA dC->dU-editing enzyme APOBEC-3F (Homo sapiens) (UniProt Q8IUX4)	18.4 µM (active)
COc1ccc(OC)c(NS(=O)(=O)c2ccc(Cl)s2)c1	DNA dC->dU-editing enzyme APOBEC-3F (Homo sapiens) (UniProt Q8IUX4)	11.2 µM (active)
O=C(COC(=O)C12CC3CC(CC(Cl)(C3)C1)C2)N1CCCCC1	DNA dC->dU-editing enzyme APOBEC-3F (Homo sapiens) (UniProt Q8IUX4)	inactive
COc1ccc(OC)c(Nc2nc(-c3ccncc3)nc3ccccc23)c1	DNA dC->dU-editing enzyme APOBEC-3F (Homo sapiens) (UniProt Q8IUX4)	inactive
O=c1c2ccccc2sc2ccc(NCCCN3CCOCC3)cc12	DNA dC->dU-editing enzyme APOBEC-3F (Homo sapiens) (UniProt Q8IUX4)	16.4 µM (active)
CC(C)N1CCc2c(sc(NC(=O)c3ccc(S(=O)(=O)N4CCOCC4)cc3)c2C#N)C1	DNA dC->dU-editing enzyme APOBEC-3F (Homo sapiens) (UniProt Q8IUX4)	20.6 µM (active)
CCN1CCc2c(sc(-n3cccc3)c2C(C)NC(=O)Nc2ccc(C(=O)OC)cc2)C1 (stereo unspecified)	DNA dC->dU-editing enzyme APOBEC-3F (Homo sapiens) (UniProt Q8IUX4)	inactive
Fc1ccc(COc2ccc3ccccc3c2CNc2nn[nH]n2)cc1	DNA dC->dU-editing enzyme APOBEC-3F (Homo sapiens) (UniProt Q8IUX4)	19.8 µM (active)
COc1cc(/C=C2\C(=N)N3N=CSC3=NC2=O)cc(Br)c1OC(=O)c1ccco1	DNA dC->dU-editing enzyme APOBEC-3F (Homo sapiens) (UniProt Q8IUX4)	inactive
O=C(NCc1cccc(C(F)(F)F)c1)c1cccc2c1C(=O)c1ccc(N3CCC(Cc4ccccc4)CC3)cc1S2(=O)=O	DNA dC->dU-editing enzyme APOBEC-3F (Homo sapiens) (UniProt Q8IUX4)	18.4 µM (active)
CN(C)c1ccc(/C=C2\SC(N3CCCCC3)=NC2=O)cc1	DNA dC->dU-editing enzyme APOBEC-3F (Homo sapiens) (UniProt Q8IUX4)	23.1 µM (active)
O=C(Oc1ccc(Cl)c2cccnc12)c1ccco1	DNA dC->dU-editing enzyme APOBEC-3F (Homo sapiens) (UniProt Q8IUX4)	inactive
Cc1[nH]c2ccccc2c1/C=C/c1cc[n+](C)cc1	DNA dC->dU-editing enzyme APOBEC-3F (Homo sapiens) (UniProt Q8IUX4)	6.27 µM (active)
Cc1[nH]c2ccccc2c1/C=C/C(=O)c1ccccc1	DNA dC->dU-editing enzyme APOBEC-3F (Homo sapiens) (UniProt Q8IUX4)	23.1 µM (active)
CCCC(=O)NC(c1ccc(OC)cc1)c1ccc2cccnc2c1O (stereo unspecified)	DNA dC->dU-editing enzyme APOBEC-3F (Homo sapiens) (UniProt Q8IUX4)	inactive
COc1cc(/C=C2\C(=N)N3N=C(S(C)(=O)=O)SC3=NC2=O)ccc1OC(=O)c1ccco1	DNA dC->dU-editing enzyme APOBEC-3F (Homo sapiens) (UniProt Q8IUX4)	inactive
